The origin of these recorded values is PubChem BioAssay AID1159580.

Assignment: determine reported normalized growth for the given molecules.
# EXPERIMENT NOTES: chemical genetic growth profiling, strain panel (AID 1159580);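 also: tested at 20 µM; growth read once vehicle control cultures reached saturation at 30 °C; 1 = growth at the plate median or of vehicle wells; lower values mean less growth of the strain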
# TEST SETTINGS: S. cerevisiae deletion strains, growth OD, locus YEL037C, strain rad23, active compounds read low
Hit rate of the full screen: of about 5,500 compounds, about 2,000 (36%) were called active. About 18% were inconclusive and are not listed. The list shows a part of the results.
The reply should be a number, written without any unit.

Query block: Which normalized growth value belongs to OCCN1C[C@@H](O)[C@@H](O)C(O)C1CO (some centres undefined) ?
Result block: 1

Query block: Look up normalized growth for this molecule: "CS(=O)(=O)c1ccc(C2=C(c3ccccc3)C(=O)OC2)cc1"
Result block: 0.992

Query block: What does the data say about its normalized growth? Entry: "CN(C)CC/C=C1\c2ccccc2Sc2ccc(Cl)cc21"
Result block: 0.983

Query block: Data request, read-out normalized growth, for "COC1=C(OC)C(=O)C(C/C=C(\C)CC/C=C(\C)CC/C=C(\C)CC/C=C(/C)CC/C=C(\C)CC/C=C(\C)CC/C=C(\C)CC/C=C(\C)CC/C=C(\C)CCC=C(C)C)=C(C)C1=O"
Result block: 0.981

Query block: Can you look up the measured normalized growth of CCN(CC)CCCC(C)Nc1c2ccc(Cl)cc2nc2ccc(OC)cc12 (centres undefined) for me?
Result block: 0.992

Query block: So what's the measured normalized growth for this one? CCN(CCO)CCCC(C)Nc1ccnc2cc(Cl)ccc12 (centres undefined)
Result block: 1.01

Query block: Look at this molecule and give its reported normalized growth. CO[C@H]1[C@H](O)[C@H](O[C@H]2CC[C@]3(C)C4CC[C@]5(C)C(C6=CC(=O)OC6)CC[C@]5(O)C4CC[C@@H]3C2)O[C@@H](C)[C@@H]1O (some centres undefined)
Result block: 1.01

Query block: Bench note: what normalized growth did "Oc1cc(Cl)ccc1Oc1ccc(Cl)cc1Cl" show?
Result block: 0.0551

Query block: Bench note: what normalized growth did C[C@H]1CC2C([C@@H](O)C[C@@]3(C)C2CC[C@]3(O)C(=O)CO)[C@@]2(C)C=CC(=O)C=C12 (some centres undefined) show?
Result block: 1

---

# EXPERIMENT NOTES: chemical genetic growth profiling, strain panel (AID 1159580);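 also: tested at 20 µM; growth read once vehicle control cultures reached saturation at 30 °C; 1 = growth at the plate median or of vehicle wells; lower values mean less growth of the strain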
# TEST SETTINGS: S. cerevisiae deletion strains, growth OD, locus YER111C, strain swi4, active compounds read low
In all, about 5,500 compounds went through this assay and about 2,000 (36%) were called active. Roughly 18% stayed inconclusive and do not appear here. This is one part of the list.
RECORDED METRIC: normalized growth

Query block: Endpoint output: normalized growth of CC(N)CCCC(C)(C)O (stereo unspecified) . Value?
Result block: 0.987 (inactive)

Query block: Return reported normalized growth; argument: "COc1cc2c(cc1OC)C(=O)OC2"
Result block: 0.996 (inactive)

Query block: Entry "COc1ccc2c(c1OC)C(=O)O[C@H]2[C@H]1c2cc3c(cc2CCN1C)OCO3" : reported normalized growth = ?
Result block: 0.993 (inactive)

Query block: Returns the measured normalized growth for the input compound. Input: "CC1(C)OC(=O)NC1=O"
Result block: 0.993 (inactive)

Query block: Quick one: normalized growth of "CC(=O)O[C@H]1[C@@H]2[C@@H](OC(=O)Cc3ccccc3)[C@@H](C)C[C@]2(OC(C)=O)C(=O)/C(C)=C/[C@H]2[C@H](CC[C@@]13CO3)C2(C)C" ?
Result block: 0.992 (inactive)

Query block: I have this compound here, "COP(=O)(OC)OC=C(Cl)Cl" , and I need its recorded normalized growth.
Result block: 0.989 (inactive)
